# system tested: T1, human TREM2 (triggering receptor expressed on myeloid cells 2) (human) (UniProt Q9NZC2)
# T1 sequence (looked up): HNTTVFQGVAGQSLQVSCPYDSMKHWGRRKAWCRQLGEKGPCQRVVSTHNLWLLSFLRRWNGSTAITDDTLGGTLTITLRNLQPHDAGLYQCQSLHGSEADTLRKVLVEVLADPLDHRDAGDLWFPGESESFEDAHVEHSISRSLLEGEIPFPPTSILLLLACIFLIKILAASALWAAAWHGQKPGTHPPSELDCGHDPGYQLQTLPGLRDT
# test details: 2nd screen, 10 nM Ab
observed property: Binding Signal (fold over 6E7 parental antibody) (fold)

INSERT INTO results (binder, unit_label, observed_measurement) VALUES
  ('6E7 antibody affinity modulation variant V1 (antibody, V domains shown) VH: EVQLVQSGAEVKKPGESLKISCKGSGYSFTSSWIAWVRQMPGKGLEWMGIIYPGDSDTRYSPSFQGQVTISADKSISTAYLQWSSLKASDTAMYFCARSRTFYYDSSDYFDYWGQGTLVTVSS VL: DIQMTQSPSSVSASVGDRVTITCRASQGISSWLAWYQQKPGKAPKLLIYAASSLTNGVPSRFSGSGSGTDFTLTISSLQPEDFATYFCQQADSYPRTFGQGTKLEIK', 'fold', 1.92),
  ('6E7 antibody affinity modulation variant V75 (antibody, V domains shown) VH: EVQLVQSGAEVKKPGESLKISCKGSGYSFTSYWIAWVRQMPGKGLEWMGIIYPGDSDTRYSPSFQGQVTISADKSISTAYLQWSSLKASDTAMYFCARGRTFYYDSSDYFDYWGQGTLVTVSS VL: DIQMTQSPSSVSASVGDRVTITCRASQGISSWLAWYQQKPGKAPKLLIYAASSLQAGVPSRFSGSGSGTDFTLTISSLQPEDFATYFCQQADSYPRTFGQGTKLEIK', 'fold', 4.52),
  ('6E7 antibody affinity modulation variant V3 (antibody, V domains shown) VH: EVQLVQSGAEVKKPGESLKISCKGSGYSFASYWIAWVRQMPGKGLEWMGIIYPGDSDTRYSPSFQDQVTISADKSISTAYLQWSSLKASDTAMYFCARGRTFYYDSSDYFDYWGQGTLVTVSS VL: DIQMTQSPSSVSASVGDRVTITCRASQGISSWLAWYQQKPGKAPKLLIYAASSRQNGVPSRFSGSGSGTDFTLTISSLQPEDFATYFCQQADRFPRTFGQGTKLEIK', 'fold', 2.24);
